test system: human mesenchymal stem cells (hMSCs); experiment: chondrogenic nodule formation by hMSCs (high throughput screen); assay type: cell-based; conditions: Homo sapiens, Mesenchymal stem cells; first value of the cell (before the slash); read-out: CHONDROGENIC μM EC50
ATTRIBUTE MEASURED: EC50 (µM)

Solved entries:
>  <COMPOUND>
O=C(O)c1cc(O)ccc1C(=O)Nc1ccc(-c2ccccc2)cc1 [LK22b]

>  <EC50 / µM>
0.0046

$$$$
>  <COMPOUND>
N#Cc1ccc(NC(=O)c2ccccc2C(=O)O)cc1

>  <EC50 / µM>
0.137

$$$$
>  <COMPOUND>
CC(C)CNC(=O)c1ccccc1C(=O)Nc1ccc(-c2ccccc2)cc1

>  <EC50 / µM>
0.0015

$$$$
>  <COMPOUND>
CCNC(=O)c1ccccc1C(=O)O

>  <EC50 / µM>
2.01

$$$$
>  <COMPOUND>
O=C(O)c1ccccc1C(=O)Nc1ccc(-c2ccccc2)cc1 [LK18b]

>  <EC50 / µM>
0.0015

$$$$
>  <COMPOUND>
COC(=O)c1ccccc1C(=O)Nc1ccc(-c2ccccc2)cc1 [LK55b]

>  <EC50 / µM>
0.124

$$$$
>  <COMPOUND>
O=C(O)c1ccccc1C(=O)Nc1ccc(CCO)cc1 [Compound L11c]

>  <EC50 / µM>
0.125

$$$$
>  <COMPOUND>
CN1C(=O)c2ccc(NC(=O)c3ccccc3C(=O)O)cc2C1=O

>  <EC50 / µM>
0.052

$$$$
>  <COMPOUND>
O=C(O)c1ccccc1C(=O)Nc1ccccc1

>  <EC50 / µM>
5

$$$$
>  <COMPOUND>
O=C(O)c1ccc(NC(=O)c2ccccc2C(=O)O)cc1

>  <EC50 / µM>
0.005

$$$$

[A] NS(=O)(=O)c1ccc(NC(=O)c2ccccc2C(=O)O)cc1
[B] Cc1ccc(NC(=O)c2ccccc2C(=O)O)c(C(=O)O)c1
Query block: Input pair: A , B . Output: entry with lower EC50. Use the label to indicate which entry you chose.
Result block: B
